target: UniProt:A0A240FBD5; experiment: in vitro cell-based bioluminescence (aequorin Ca2+) assay on Dappu-RPCHR expressing CHO-WTA11 cells; details: Table 1; AKH/RPCH and related peptides; calculated from dose-response curves
Sequence (A0A240FBD5 1-451): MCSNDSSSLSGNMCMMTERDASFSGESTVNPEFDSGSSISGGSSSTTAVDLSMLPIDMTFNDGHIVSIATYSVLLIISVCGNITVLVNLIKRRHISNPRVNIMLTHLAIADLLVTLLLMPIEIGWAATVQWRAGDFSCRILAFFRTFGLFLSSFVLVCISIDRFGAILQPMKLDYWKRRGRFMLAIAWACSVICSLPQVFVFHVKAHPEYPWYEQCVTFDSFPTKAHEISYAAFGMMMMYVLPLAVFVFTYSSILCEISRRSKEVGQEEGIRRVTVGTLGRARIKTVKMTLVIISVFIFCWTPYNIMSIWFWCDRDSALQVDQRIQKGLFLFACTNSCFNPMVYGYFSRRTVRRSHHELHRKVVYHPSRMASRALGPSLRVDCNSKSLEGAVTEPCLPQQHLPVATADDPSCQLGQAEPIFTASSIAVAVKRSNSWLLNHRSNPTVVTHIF
Where a SMILES comes first, the peptide text is derived from it. [ ]: non-standard residue; d: D form. pGlu = O=C1CC[C@@H](C(=O)O)N1
Experimental endpoint: EC50
# output: numeric value plus its unit

These solved cases illustrate the format of a correct answer.
{"columns": ["Molecule", "Tested on", "EC50"],
 "data": [
  ["CC(C)[C@H](NC(=O)[C@@H]1CCC(=O)N1)C(=O)N[C@@H](CC(N)=O)C(=O)N[C@@H](Cc1ccccc1)C(=O)N[C@@H](CO)C(=O)N[C@H](C(=O)N[C@@H](CO)C(=O)N[C@@H](Cc1c[nH]c2ccccc12)C(N)=O)[C@@H](C)O [Dappu-RPCH, pQVNFSTSWamide] ([pGlu]VNFSTSW-NH2)", "UniProt:A0A240FBD5", "0.0645 nM"],
  ["CC(C)C[C@H](NC(=O)[C@@H]1CCC(=O)N1)C(=O)N[C@@H](CC(N)=O)C(=O)N[C@@H](Cc1ccccc1)C(=O)N[C@@H](CO)C(=O)N[C@@H](CO)C(=O)NCC(=O)N[C@@H](Cc1c[nH]c2ccccc12)C(N)=O [Nepci-AKH, pQLNFSSGWamide] ([pGlu]LNFSSGW-NH2)", "UniProt:A0A240FBD5", "0.272 nM"],
  ["CC(C)[C@H](NC(=O)[C@@H]1CCC(=O)N1)C(=O)N[C@@H](CC(N)=O)C(=O)N[C@@H](Cc1ccccc1)C(=O)N[C@@H](CO)C(=O)N1CCC[C@H]1C(=O)N[C@@H](CO)C(=O)N[C@@H](Cc1c[nH]c2ccccc12)C(N)=O [Anaim-AKH, pQVNFSPSWamide] ([pGlu]VNFSPSW-NH2)", "UniProt:A0A240FBD5", "0.224 nM"],
  ["CC(C)[C@H](NC(=O)[C@@H]1CCC(=O)N1)C(=O)N[C@@H](CC(N)=O)C(=O)N[C@@H](Cc1ccccc1)C(=O)N[C@@H](CO)C(=O)N1CCC[C@H]1C(=O)N[C@@H](CO)C(=O)N[C@@H](Cc1c[nH]c2ccccc12)C(=O)NCC(=O)N[C@@H](CC(N)=O)C(N)=O [Placa-HrTH, pQVNFSPSWGNamide] ([pGlu]VNFSPSWGN-NH2)", "UniProt:A0A240FBD5", "0.664 nM"],
  ["CC(C)[C@H](NC(=O)[C@@H]1CCC(=O)N1)C(=O)N[C@@H](CC(N)=O)C(=O)N[C@@H](Cc1ccccc1)C(=O)N[C@@H](CO)C(=O)N1CCC[C@H]1C(=O)NCC(=O)N[C@@H](Cc1c[nH]c2ccccc12)C(N)=O [Manto-CC, pQVNFSPGWamide] ([pGlu]VNFSPGW-NH2)", "UniProt:A0A240FBD5", "0.1 nM"],
  ["CC(C)C[C@H](NC(=O)[C@@H]1CCC(=O)N1)C(=O)N[C@@H](CC(N)=O)C(=O)N[C@@H](Cc1ccccc1)C(=O)N[C@@H](CO)C(=O)N[C@H](C(=O)NCC(=O)N[C@@H](Cc1c[nH]c2ccccc12)C(N)=O)[C@@H](C)O [Schgr-AKH-II, pQLNFSTGWamide] ([pGlu]LNFSTGW-NH2)", "UniProt:A0A240FBD5", "0.237 nM"]
]}

stdin: State the recorded EC50 for this entry: CC(C)C[C@H](NC(=O)[C@@H]1CCC(=O)N1)C(=O)N[C@@H](CC(N)=O)C(=O)N[C@@H](Cc1ccccc1)C(=O)N[C@@H](CO)C(=O)N1CCC[C@H]1C(=O)NCC(=O)N[C@@H](Cc1c[nH]c2ccccc12)C(N)=O [Panbo-RPCH, pQLNFSPGWamide] ([pGlu]LNFSPGW-NH2)
stdout: 7.93 nM
